Reported EC50 by item:
# Tested on: HBV viral production from HepAD38 cells
# assay-notes: Activity of test compounds on viral production from HepAD38 cells (viral load by qPCR of HBV core sequence in supernatant)
# Format: cell-based
# experimental-context: Hepatitis B virus, 120 h, 5 days incubation, HBV DNA in supernatant by qPCR, top concentration 10 μM, read-out: Viral Load EC50 Activity range

[
  {
    "compound": "CCN(CC)CCCN1[C@@H](C(=O)Nc2ccc(F)c(Cl)c2)C[C@@H](c2nccs2)NS1(=O)=O",
    "measured-property": "EC50",
    "test-result": "> 5 µM"
  },
  {
    "compound": "CN1[C@@H](C(=O)Nc2ccc(F)c(Cl)c2)C[C@@H](c2cc(-c3ccc(C(F)(F)F)nc3)cs2)NS1(=O)=O",
    "measured-property": "EC50",
    "test-result": "> 5 µM"
  },
  {
    "compound": "CN1[C@@H](C(=O)Nc2ccc(F)c(Cl)c2)C[C@@H](c2ccc(F)cn2)NS1(=O)=O",
    "measured-property": "EC50",
    "test-result": "> 5 µM"
  },
  {
    "compound": "CN1[C@H](C(=O)Nc2ccc(F)c(Cl)c2)C[C@H](c2cc(-c3ccc(C#N)c(F)c3)cs2)NS1(=O)=O",
    "measured-property": "EC50",
    "test-result": "< 1 µM"
  }
]

// query EC50 value for entry C=CCN1C(C(=O)Nc2ccc(F)c(Cl)c2)CC(c2cccs2)NS1(=O)=O (centres unmarked)
< 1 µM

Find the recorded EC50 belonging to "COCCN1[C@@H](c2cccs2)C[C@@H](C(=O)Nc2ccc(F)c(Cl)c2)NS1(=O)=O" and report it.
> 5 µM

Can you look up the measured EC50 of "CN1[C@H](C(=O)Nc2ccc(F)c(Cl)c2)C[C@H](c2cc(Br)cs2)NS1(=O)=O" for me?
< 1 µM

So what's the measured EC50 for this one? CN1[C@@H](C(=O)Nc2ccc(F)c(Cl)c2)C[C@@H](c2cc(-c3cnn(C(F)(F)F)c3)cs2)NS1(=O)=O (relative stereo)
> 5 µM
